FYI, the data here is from patent US12390437B2.

Test system: IL-1β cytokine output from THP-1s
Experiment: THP-1 AlphaLISA IL-1β cytokine assay
Assay type: cell-based, human
Conditions: Homo sapiens, THP-1, PMA-differentiated THP-1 cells, LPS 24 hr then Nigericin 1 hour; read-out: IL-1β (IC50)
pIC50: −log10 of the molar value.
readout-type: pIC50

Consider the worked cases shown below.
>>> measured_value("C=C(CC(=O)OCCCC)C(=O)OCCS(C)(=O)=O [Example 7]")
4.78
>>> measured_value("C=C(CC(=O)OC1CCCCC1)C(=O)OCC(C)(C)C(=O)O [Example 117]")
4.00
>>> measured_value("C=C(CC(=O)OC1CCCCCCC1)C(=O)OCCc1nnn[nH]1 [Example 130]")
4.80

[P] C=C(CC(=O)OC1CCCCC1)C(=O)OCCS(C)(=O)=O [Example 61]
[Q] C=C(CC(=O)O[C@H](CC)CCCCC)C(=O)OCC(=O)O [Example 178]
Identify the entry with the smaller pIC50: P or Q . Could you answer with the label of the item you picked? Q
(Q: 4.61, P: 5.21)

[I] C=C(CC(=O)O[C@H](C)CCCCCC)C(=O)OCCc1nnn[nH]1 [Example 135]
[II] C=C(CC(=O)OCCCCCCCC)C(=O)OC(C)C(=O)N1CCC[C@H]1C(=O)O (some centres unmarked) [Example 101]
[III] C=C(CC(=O)OC1CCCCC1)C(=O)OCc1nnnn1C [Example 143]
[IV] C=C(CC(=O)OCC1CCC(F)(F)CC1)C(=O)OCC(=O)O [Example 113]
[V] C=C(CC(=O)OC(C)COCCCC)C(=O)O[C@H]1[C@@H]2CC[C@H]1CN(S(C)(=O)=O)C2 (some centres unmarked) [Example 159]
Sequence the entries by pIC50, beginning with the highest number. Put the labels in the requested order and write them down. III, I, II, V, IV
(III: 5.70, I: 5.38, II: 4.82, V: 4.50, IV: 4.00)

[1] C=C(CC(=O)OC1CCCCC1)C(=O)OC(C)CS(C)(=O)=O (centres unmarked) [Example 59]
[2] C=C(CC(=O)O[C@@H](CCCCCC)C(F)(F)F)C(=O)OCC(=O)O [Example 182]
Given the listed items, does 1 or 2 have the lesser reported pIC50? Pick one; state its label. 1
(1: 4.88, 2: 5.21)

* * *

Test system: IL-1β cytokine output from THP-1s
Experiment: THP-1 AlphaLISA IL-1β cytokine assay
Type: cell-based, human
Conditions: Homo sapiens, THP-1, PMA-differentiated THP-1 cells, LPS 24 hr then Nigericin 1 hour; read-out: IL-1β (IC50)
readout-type: IC50 (µM)

Check out these entries, answers already filled in.
>>> measured_value("C=C(CC(=O)OC1CCCCCCC1)C(=O)OC(C)CS(C)(=O)=O (centres unmarked)")
3.5
>>> measured_value("C=C(CC(=O)OC1CC2(CCC2)C1)C(=O)OCc1nn[nH]n1")
23.9
>>> measured_value("C=C(CC(=O)OCCCCCCCC)C(=O)OCC(=O)OC(C)(C)C")
10.1
>>> measured_value("C=C(CC(=O)O[C@@H](C)c1ccc(C(F)(F)F)cc1)C(=O)OCC(=O)O")
24.6
>>> measured_value("C=C(CC(=O)OCCCCCC)C(=O)OCCC(=O)NS(C)(=O)=O")
26.9
>>> measured_value("C=C(CC(=O)OCCCCCCCC)C(=O)OCCC(=O)N1CCOCC1")
11.1

[I] C=C(CC(=O)OC1CCCCC1)C(=O)OCc1nnn[nH]1
[II] C=C(CC(=O)OCCCCCCCC)C(=O)OC(C)C(=O)NCC(=O)O (centres unmarked)
Would you mind telling me which has the lower recorded IC50 between I and II ? The response must carry the label of the picked entry. II
(II: 1.5 µM, I: 17 µM)
